# System tested: Cytochrome P450 2C9 (Homo sapiens, UniProt P11712)
# Sequence (P11712 whole entry): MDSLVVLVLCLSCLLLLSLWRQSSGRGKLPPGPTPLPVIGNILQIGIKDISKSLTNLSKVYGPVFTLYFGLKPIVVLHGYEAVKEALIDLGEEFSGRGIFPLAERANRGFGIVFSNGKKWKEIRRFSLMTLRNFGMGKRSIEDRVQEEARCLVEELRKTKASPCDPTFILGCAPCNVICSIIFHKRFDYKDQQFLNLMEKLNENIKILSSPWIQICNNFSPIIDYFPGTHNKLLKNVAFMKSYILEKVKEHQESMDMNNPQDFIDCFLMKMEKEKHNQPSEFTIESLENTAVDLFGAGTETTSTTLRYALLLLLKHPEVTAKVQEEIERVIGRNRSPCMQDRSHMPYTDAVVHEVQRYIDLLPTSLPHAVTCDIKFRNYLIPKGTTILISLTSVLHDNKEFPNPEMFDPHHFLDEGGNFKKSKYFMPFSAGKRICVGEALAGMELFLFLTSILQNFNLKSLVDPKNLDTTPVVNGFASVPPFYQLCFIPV
Property: pIC50
Here pIC50 is given on a logarithmic scale as minus log10 of the concentration in mol/L.

Report pIC50 for O=C1NC(c2ccc(F)cc2)(c2ccc(F)cc2)CN1C1CCN(Cc2cccc(Cl)c2)CC1 please.
5.38

----------
# Assay comment: Intrinsic clearance in human liver microsomes
# Format: ADME, Microsome
Classify: Y when CLint scaled is strictly less than 0.9 mL/min/g; N when CLint scaled is not.

In plain terms, does O=C1NC(c2cccs2)(c2cccs2)CN1C1CCN(Cc2ccccc2)CC1 come in under 0.9 mL/min/g for CLint scaled?
N

Try this compound too: O=C1NC(c2ccc(F)cc2)(c2ccc(F)cc2)CN1C1CCN(Cc2ccccc2)CC1
Y

Try this compound too: O=C1NC(c2ccc(F)cc2)(c2ccc(F)cc2)CN1C1CCN(Cc2cccc(F)c2)CC1
Y

Try this compound too: O=C1NC(c2cccs2)(c2cccs2)CN1C1CCN(Cc2cccc(F)c2)CC1
N

Try this compound too: O=C1NC(c2ccccc2)(c2ccccc2)CN1C1CCN(Cc2ccccc2)CC1
N

Try this compound too: O=C1NC(c2ccc(F)cc2)(c2ccc(F)cc2)CN1C1CCN(Cc2cccc(Cl)c2)CC1
Y

----------
# System tested: Cytochrome P450 2C19 (Homo sapiens)
# Sequence (P33261 whole entry): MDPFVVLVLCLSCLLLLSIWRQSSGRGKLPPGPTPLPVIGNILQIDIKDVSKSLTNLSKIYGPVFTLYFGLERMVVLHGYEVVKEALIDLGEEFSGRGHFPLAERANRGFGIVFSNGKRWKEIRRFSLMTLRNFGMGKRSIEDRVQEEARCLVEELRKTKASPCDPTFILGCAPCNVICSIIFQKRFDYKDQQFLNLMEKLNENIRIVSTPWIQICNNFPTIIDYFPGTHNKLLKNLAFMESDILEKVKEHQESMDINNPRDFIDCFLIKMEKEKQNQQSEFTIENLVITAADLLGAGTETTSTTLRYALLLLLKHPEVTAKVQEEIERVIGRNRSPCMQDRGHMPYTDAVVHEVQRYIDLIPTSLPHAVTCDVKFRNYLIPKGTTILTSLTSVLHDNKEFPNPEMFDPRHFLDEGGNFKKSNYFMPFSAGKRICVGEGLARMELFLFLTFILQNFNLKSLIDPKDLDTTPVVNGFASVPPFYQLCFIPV
So I've got a bunch of molecules here, and I need their IC50 values.

Report IC50 for O=C1NC(c2ccc(F)cc2)(c2ccc(F)cc2)CN1C1CCN(Cc2cccc(Cl)c2)CC1 please.
17.7 µM

Try this molecule too: O=C1NC(c2ccc(F)cc2)(c2ccc(F)cc2)CN1C1CCN(Cc2ccccc2)CC1
12.9 µM

----------
# System tested: UniProt P08172
# Sequence (P08172 whole entry): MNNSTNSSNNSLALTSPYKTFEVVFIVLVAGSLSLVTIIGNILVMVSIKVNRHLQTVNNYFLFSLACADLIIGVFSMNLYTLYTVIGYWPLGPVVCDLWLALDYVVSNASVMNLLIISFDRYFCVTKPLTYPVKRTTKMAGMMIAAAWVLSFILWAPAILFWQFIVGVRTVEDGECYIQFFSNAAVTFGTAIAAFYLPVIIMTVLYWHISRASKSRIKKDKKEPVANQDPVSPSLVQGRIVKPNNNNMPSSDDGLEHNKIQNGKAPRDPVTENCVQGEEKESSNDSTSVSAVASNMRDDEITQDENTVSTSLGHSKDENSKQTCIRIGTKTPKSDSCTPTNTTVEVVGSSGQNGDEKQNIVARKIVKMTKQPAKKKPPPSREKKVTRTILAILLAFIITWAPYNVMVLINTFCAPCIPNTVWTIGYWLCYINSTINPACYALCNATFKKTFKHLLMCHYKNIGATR
# Assay comment: Displacement of [3H]N-methyl-scopolamine from human muscarinic M2 receptor expressed in CHO K1 cells
# Assay type: cell-based
Property: Ki

For UniProt P08172, provide Ki of O=C1NC(Cc2ccccc2)(Cc2ccccc2)CN1C1CCN(Cc2ccccc2)CC1 please.
2950 nM (antagonist)

Try this molecule too: COc1cccc(CN2CCC(N3CC(c4ccccc4)(c4ccccc4)NC3=O)CC2)c1
695 nM (antagonist)

Try this molecule too: O=C1OC(c2ccccc2)(c2ccccc2)CN1C1CCN(Cc2ccccc2)CC1
908 nM (antagonist)

Try this molecule too: O=C1NC(c2ccccc2)(C2CCCCC2)CN1C1CCN(Cc2cccc(Cl)c2)CC1 (stereo unspecified)
515 nM (antagonist)

Try this molecule too: Cc1cccc(CN2CCC(N3CC(c4ccccc4)(C4CCCCC4)NC3=O)CC2)c1 (stereo unspecified)
166 nM (antagonist)

Try this molecule too: O=C1NC(c2ccccc2)(c2ccccc2)CN1[C@H]1CCN(Cc2ccccc2)C1
2270 nM (antagonist)

Try this molecule too: O=C1NC(c2ccccc2)(c2ccccc2)CN1C1CCN(Cc2cccs2)CC1
927 nM (antagonist)

Try this molecule too: O=C1NC(c2ccccc2)(c2ccccc2)CN1C1CCN(Cc2cccnc2)CC1
302 nM (antagonist)

Try this molecule too: CN1CCC(N2CC(c3ccccc3)(c3ccccc3)NC2=O)CC1
2920 nM (antagonist)

Try this molecule too: O=C1NC(c2ccccc2)(c2ccccc2)CN1C1CCN(Cc2cccc(F)c2)CC1
302 nM (antagonist)

Try this molecule too: O=C1NC(c2ccccc2)(c2ccccc2)CN1C1CCN(Cc2cccc(O)c2)CC1
47.9 nM (antagonist)

Try this molecule too: O=C1NC(c2ccccc2)(c2ccccc2)CN1C1CCN(CCc2ccccc2)CC1
411 nM (antagonist)

Try this molecule too: O=C1NC(c2ccccc2)(c2ccccc2)CN1C1CCN(CCOc2ccccc2)CC1
328 nM (antagonist)

Try this molecule too: CN1C(=O)N(C2CCN(Cc3ccccc3)CC2)CC1(c1ccccc1)c1ccccc1
520 nM (antagonist)

Try this molecule too: COc1ccc(CN2CCC(N3CC(c4ccccc4)(c4ccccc4)NC3=O)CC2)cc1
490 nM (antagonist)

Try this molecule too: O=C1NC(c2ccccc2)(c2ccccc2)CN1C1CCCN(Cc2ccccc2)CC1 (stereo unspecified)
2 nM (antagonist)

Try this molecule too: O=C1NC(c2ccccc2)(c2ccccc2)CN1C1CCN(Cc2ccc(Cl)cc2)CC1
296 nM (antagonist)

Try this molecule too: O=C1NC(c2ccccc2)(c2ccccc2)CN1[C@@H]1CCN(Cc2ccccc2)C1
82.2 nM (antagonist)

Try this molecule too: O=C1NC(c2ccccc2)(c2ccccc2)CN1C1CC2CCC(C1)N2Cc1ccccc1 (stereo unspecified)
65 nM (antagonist)

Try this molecule too: Nc1cccc(CN2CCC(N3CC(c4ccccc4)(c4ccccc4)NC3=O)CC2)c1
182 nM (antagonist)

Try this molecule too: O=C1N(C2CCN(Cc3ccccc3)CC2)CC(c2ccccc2)N1Cc1ccccc1 (stereo unspecified)
629 nM (antagonist)
